- Measured on: Recombinant human 17β-HSD13 (Homo sapiens (Human), UniProt Q7Z5P4)
- Sequence (Q7Z5P4 20-300): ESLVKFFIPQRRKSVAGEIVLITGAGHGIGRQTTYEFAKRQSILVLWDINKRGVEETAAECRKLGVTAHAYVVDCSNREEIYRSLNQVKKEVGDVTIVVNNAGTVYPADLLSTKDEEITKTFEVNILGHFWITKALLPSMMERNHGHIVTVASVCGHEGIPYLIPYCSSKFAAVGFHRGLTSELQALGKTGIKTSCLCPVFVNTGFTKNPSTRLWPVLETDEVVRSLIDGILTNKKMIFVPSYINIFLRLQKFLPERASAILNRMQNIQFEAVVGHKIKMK
- Protocol description: 17β-HSD13 rapid-fire mass spectrometry assay (RF/MS assay)
- Recorded conditions: HSD17B13 80 nM, LTB4 10 μM, NAD+ 0.5 mM, RT 3 h, RF/MS readout
Property label: IC50

Answered examples (2):
CC(C)Oc1ccc(-c2nc3sc4c(O)cccc4c3c(=O)n2Cc2ccno2)c(C2CC2)c1 | < 0.1 µM
O=c1c2c(nc(-c3ccc(F)cc3C3CC3)n1CCCc1nc3ccccc3o1)sc1c(O)cccc12 | < 0.1 µM

Consider the following items and state reported IC50 for each.
1. COc1ccc(-c2nc3sc4c(O)cccc4c3c(=O)n2CCNCc2cn[nH]c2)c(C2CC2)c1
2. COc1ccc(-c2nc3sc4c(O)cccc4c3c(=O)n2Cc2ccnc(Cl)c2)c(C2CC2)c1
3. COc1ccc(-c2nc3sc4c(O)cccc4c3c(=O)n2Cc2ccnc(C)c2)c(C2CC2)c1
4. O=c1c2c(nc(-c3ccccc3C3CC3)n1Cc1cncs1)sc1c(O)cccc12

A:
1. < 0.1 µM
2. < 0.1 µM
3. < 0.1 µM
4. < 0.1 µM

Consider the following items and state reported IC50 for each.
1. COc1ccc(-c2nc3sc4c(O)cccc4c3c(=O)n2CCNCc2nnn[nH]2)c(C2CC2)c1
2. COc1ccc(-c2nc3sc4c(O)cccc4c3c(=O)n2CCN(C)Cc2ccncc2)c(C2CC2)c1
3. COc1ccc(-c2nc3sc4c(O)cccc4c3c(=O)n2CCNS(=O)(=O)c2ccc(F)cc2)c(C2CC2)c1
4. O=c1c2c(nc(-c3ccc4c(c3)OCCO4)n1Cc1ccccc1)sc1c(O)cccc12
5. COC(=O)NCCn1c(-c2ccc(OC)cc2C2CC2)nc2sc3c(O)cccc3c2c1=O

A:
["< 0.1 µM", "< 0.1 µM", "0.1 to 1 µM", "0.1 to 1 µM", "0.1 to 1 µM"]

Consider the following items and state reported IC50 for each.
1. COc1ccc(-c2nc3sc4c(OC(=O)[C@H](C)N)cccc4c3c(=O)n2Cc2cncs2)c(C2CC2)c1
2. COc1ccc(-c2nc3sc4c(O)cccc4c3c(=O)n2CCN2CCN(C)CC2)c(C2CC2)c1
3. O=c1c2c(nc(-c3ccc(F)cc3C3CC3)n1CCCc1nc3ccccc3s1)sc1c(O)cccc12
4. COc1ccc(-c2nc3sc4c(O)cccc4c3c(=O)n2Cc2cnc(C)s2)c(C2CC2)c1
5. COc1ccc(-c2nc3sc4c(O)cccc4c3c(=O)n2Cc2cnco2)c(C2CC2)c1
6. COc1ccc(-c2nc3sc4c(O)cccc4c3c(=O)n2C/C=C/CSc2ccccc2)c(C2CC2)c1

A:
1: < 0.1 µM; 2: < 0.1 µM; 3: < 0.1 µM; 4: < 0.1 µM; 5: < 0.1 µM; 6: 0.1 to 1 µM

Consider the following items and state reported IC50 for each.
1. O=c1c2c(nc(-c3ccc(F)cc3C3CC3)n1Cc1cc(C(F)(F)F)no1)sc1c(O)cccc12
2. COc1ccc(-c2nc3sc4c(O)cccc4c3c(=O)n2C/C=C/COC(=O)N(C)C)c(C2CC2)c1

A:
["< 0.1 µM", "< 0.1 µM"]

Consider the following items and state reported IC50 for each.
1. CCC(=O)Oc1cccc2c1sc1nc(-c3ccc(OC)cc3C3CC3)n(Cc3cnco3)c(=O)c12
2. COc1ccc(-c2nc3sc4c(O)cccc4c3c(=O)n2C/C=C/CO)c(C2CC2)c1
3. O=c1c2c(nc(-c3ccc(F)cc3C3CC3)n1CCn1nccn1)sc1c(O)cccc12
4. COc1ccc(-c2nc3sc4c(OP(=O)(O)O)cccc4c3c(=O)n2Cc2nnn(C)n2)c(C2CC2)c1
5. CCn1c(-c2ccc(OC)cc2C2CC2)nc2sc3c(O)cccc3c2c1=O
6. COc1ccc(-c2nc3sc4c(O)cccc4c3c(=O)n2Cc2ccccc2)c(Br)c1

A:
< 0.1 µM
< 0.1 µM
< 0.1 µM
1 to 10 µM
< 0.1 µM
0.1 to 1 µM

Consider the following items and state reported IC50 for each.
1. COc1ccc(-c2nc3sc4c(O)cccc4c3c(=O)n2CCN(C)C)c(C2CC2)c1
2. COc1ccc(-c2nc3sc4c(O)cccc4c3c(=O)n2Cc2ccncc2)c(C2CC2)c1
3. COc1ccc(-c2nc3sc4c(O)cccc4c3c(=O)n2Cc2ccno2)c(C2CC2)c1

A:
1: < 0.1 µM; 2: < 0.1 µM; 3: < 0.1 µM

Consider the following items and state reported IC50 for each.
1. COc1ccc(-c2nc3sc4c(O)cccc4c3c(=O)n2Cc2cn[nH]c2)c(C2CC2)c1
2. O=c1c2c(nc(-c3ccc(F)cc3C3CC3)n1CCCc1nccs1)sc1c(O)cccc12
3. O=c1c2c(nc(-c3ccc(F)cc3C3CC3)n1Cc1cncs1)sc1c(O)cccc12
4. COc1ccc(-c2nc3sc4c(O)cccc4c3c(=O)n2CCNCc2nnn(C)n2)c(C2CC2)c1

A:
< 0.1 µM
< 0.1 µM
< 0.1 µM
< 0.1 µM

----------
So I've got a bunch of compounds here, and I need their pIC50 values.
- Measured on: Recombinant human 17β-HSD13 (Homo sapiens (Human), UniProt Q7Z5P4)
- Protocol description: 17β-HSD13 rapid-fire mass spectrometry assay (RF/MS assay)
- Recorded conditions: HSD17B13 80 nM, LTB4 10 μM, NAD+ 0.5 mM, RT 3 h, RF/MS readout
pIC50: −log10 of the molar value.

Answered examples (8):
COc1ccc(-c2nc3sc4c(O)cccc4c3c(=O)n2CCNCc2cncs2)c(C2CC2)c1 | > 7.00
COc1ccc(-c2nc3sc4c(O)cccc4c3c(=O)n2CC(F)(F)F)c(C2CC2)c1 | 6.00 to 7.00
COc1ccc(-c2nc3sc4c(O)cccc4c3c(=O)n2C/C=C/COc2ccncc2)c(C2CC2)c1 | > 7.00
COc1ccc(-c2nc3sc4c(OC(=O)C(C)C)cccc4c3c(=O)n2Cc2cnco2)c(C2CC2)c1 | 5.00 to 6.00
COc1ccc(-c2nc3sc4c(OC(C)=O)cccc4c3c(=O)n2Cc2cnco2)c(C2CC2)c1 | 6.00 to 7.00
COc1ccc(-c2nc3sc4c(O)cccc4c3c(=O)n2Cc2csc(C)n2)c(C2CC2)c1 | > 7.00
COc1ccc(-c2nc3sc4c(O)cccc4c3c(=O)n2CC2CC2)c(C2CC2)c1 | 6.00 to 7.00
CCCn1c(-c2ccc(OC)cc2C2CC2)nc2sc3c(O)cccc3c2c1=O | 6.00 to 7.00

Consider the following items and state reported pIC50 for each.
1. COc1ccc(-c2nc3sc4c(O)cccc4c3c(=O)n2CCNC(=O)c2ccncc2)c(C2CC2)c1
2. CCOC(=O)C1CC1Cn1c(-c2ccc(OC)cc2C2CC2)nc2sc3c(O)cccc3c2c1=O (centres unmarked)
3. COc1ccc(-c2nc3sc4c(O)ccc(Cl)c4c3c(=O)n2Cc2cnco2)c(C2CC2)c1

A:
1: 6.00 to 7.00; 2: > 7.00; 3: > 7.00

----------
So I've got a bunch of molecules here, and I need their IC50 values.
- Measured on: Recombinant human 17β-HSD13 (Homo sapiens (Human))
- Protocol description: 17β-HSD13 rapid-fire mass spectrometry assay (RF/MS assay)
- Recorded conditions: HSD17B13 80 nM, LTB4 10 μM, NAD+ 0.5 mM, RT 3 h, RF/MS readout

Answered examples (3):
COc1ccc(-c2nc3sc4c(O)cccc4c3c(=O)n2CCNCc2ccccn2)c(C2CC2)c1 [Example 22] | < 100 nM
COc1ccc(-c2nc3sc4c(O)cccc4c3c(=O)n2Cc2cncs2)c(C2CC2)c1 [Example 15] | < 100 nM
COc1ccc(-c2nc3sc4c(O)cccc4c3c(=O)n2CCN(C)Cc2cccnc2)c(C2CC2)c1 [Example 27] | < 100 nM

Consider the following items and state reported IC50 for each.
1. O=c1c2c(nc(-c3ccc(F)cc3C3CC3)n1CCn1ccc(C3CC3)n1)sc1c(O)cccc12 [Example 72]
2. COc1ccc(-c2nc3sc4c(O)cccc4c3c(=O)n2CCN2CCCCC2)c(C2CC2)c1 [Example 20]
3. O=c1c2c(nc(-c3ccc(F)cc3C3CC3)n1Cc1cnoc1)sc1c(O)cccc12 [Example 70]
4. COc1ccc(-c2nc3sc4c(O)cccc4c3c(=O)n2CCNCc2nnnn2C)c(C2CC2)c1 [Example 40]
5. COc1ccc(-c2nc3sc4c(O)cccc4c3c(=O)n2CCNCc2cnccn2)c(C2CC2)c1 [Example 28]
6. COc1ccc(-c2nc3sc4c(O)cccc4c3c(=O)n2CCNCc2ccncc2)c(C2CC2)c1 [Example 21]
7. COc1ccc(-c2nc3sc4c(O)cccc4c3c(=O)n2CCNCc2cccnc2)c(C2CC2)c1 [Example 23]
8. CC(C)Oc1ccccc1-c1nc2sc3c(O)cccc3c2c(=O)n1Cc1cncs1 [Example 49]

A:
100 to 1000 nM
< 100 nM
< 100 nM
< 100 nM
< 100 nM
< 100 nM
< 100 nM
< 100 nM

Consider the following items and state reported IC50 for each.
1. COc1ccc(-c2nc3sc4c(O)cccc4c3c(=O)n2C/C=C/CN(C)C)c(C2CC2)c1 [Example 55]
2. COc1ccc(-c2nc3sc4c(OC(=O)c5ccccc5)cccc4c3c(=O)n2Cc2cnco2)c(C2CC2)c1 [Example 3]
3. COc1ccc(-c2nc3sc4c(O)cccc4c3c(=O)n2CCN)c(C2CC2)c1 [Example 44]
4. COc1ccc(-c2nc3sc4c(OC(=O)C(C)(C)C)cccc4c3c(=O)n2Cc2cnco2)c(C2CC2)c1 [Example 89]
5. COc1ccc(-c2nc3sc4c(O)cccc4c3c(=O)n2Cc2cc(C)no2)c(C2CC2)c1 [Example 66]
6. CC(C)(C)c1ccc(-c2nc3sc4c(O)cccc4c3c(=O)n2Cc2ccccc2)cc1 [Example 5]
7. CC(C)Oc1ccc(-c2nc3sc4c(O)cccc4c3c(=O)n2Cc2ccccc2)cc1 [Example 7]

A:
1: > 10000 nM; 2: 100 to 1000 nM; 3: 100 to 1000 nM; 4: > 10000 nM; 5: < 100 nM; 6: > 10000 nM; 7: > 10000 nM

// field: IC50; key: O=c1c2c(nc(-c3ccc(F)cc3C3CC3)n1CCn1ccnn1)sc1c(O)cccc12 [Example 80] ; value = < 100 nM

Source: patent US20230416268A1
